Values compiled from patent US8633245B2.

molecular target: recombinant human PAI-1 (Homo sapiens, UniProt P05121); construct: purchased Molecular Innovations, Inc; experiment: Test Example 1: human PAI-1 inhibitory activity (tPA fluorogenic substrate, pH 7.5 Tris buffer); format: biochemical; conditions: Compound Concentration 10 μM; Tris buffer
Sequence (P05121 24-402): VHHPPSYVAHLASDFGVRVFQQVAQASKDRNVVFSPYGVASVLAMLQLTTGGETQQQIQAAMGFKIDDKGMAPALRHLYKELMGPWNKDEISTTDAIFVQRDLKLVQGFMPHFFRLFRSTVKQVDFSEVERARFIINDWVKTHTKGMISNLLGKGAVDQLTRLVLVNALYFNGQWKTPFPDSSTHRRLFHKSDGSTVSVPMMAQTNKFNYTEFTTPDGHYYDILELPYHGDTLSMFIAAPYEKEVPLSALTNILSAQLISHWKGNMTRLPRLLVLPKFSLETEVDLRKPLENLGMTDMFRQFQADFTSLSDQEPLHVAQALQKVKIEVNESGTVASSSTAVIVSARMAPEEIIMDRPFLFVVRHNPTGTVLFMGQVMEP
measure: Inhibition Rate of PAI-1 Activity (%)

Recorded results for 5 molecules are shown here.
molecule: O=C(O)C(=O)N(CCCCc1ccccc1)c1ccc(N2CCCCC2)c(-c2ccc(OC(F)(F)F)cc2)c1 [Compound 247]
target_entity: recombinant human PAI-1 (Homo sapiens, UniProt P05121)
Inhibition Rate of PAI-1 Activity (%): 99

molecule: CC(C)(C)c1ccc(CN(C(=O)C(=O)O)c2ccc(-c3ccc(OC(F)(F)F)cc3)cc2)cc1 [Compound 133]
target_entity: recombinant human PAI-1 (Homo sapiens, UniProt P05121)
Inhibition Rate of PAI-1 Activity (%): 92

molecule: CC(C)(C)c1ccc(CN(C(=O)C(=O)O)c2cccc(OCc3ccc(OC(F)(F)F)cc3)c2)cc1 [Compound 619]
target_entity: recombinant human PAI-1 (Homo sapiens, UniProt P05121)
Inhibition Rate of PAI-1 Activity (%): 83

molecule: CC(C)(C)c1ccc(-c2ccc(OCc3ccccc3OC(F)(F)F)c(CCC(=O)O)c2)cc1 [Compound 67]
target_entity: recombinant human PAI-1 (Homo sapiens, UniProt P05121)
Inhibition Rate of PAI-1 Activity (%): 70

molecule: CC(C)(C)c1ccc(CN(C(=O)C(=O)O)c2ccc(-c3ccc(OC(F)(F)F)cc3)cc2C(F)(F)F)cc1 [Compound 150]
target_entity: recombinant human PAI-1 (Homo sapiens, UniProt P05121)
Inhibition Rate of PAI-1 Activity (%): 75

[1] Cc1cc(-c2ccc(OC(F)(F)F)cc2)ccc1N(Cc1ccc(C(C)(C)C)cc1)C(=O)C(=O)O [Compound 146]
[2] Cc1ccc(-c2ccc(OC(F)(F)F)cc2)cc1N(Cc1ccc(C(C)(C)C)cc1)C(=O)C(=O)O [Compound 136]
From the items above, decide which of 1 and 2 has the lower Inhibition Rate of PAI-1 Activity (%) reading. Answer = label.
2
(2: 47%, 1: 73%)

----------
target: recombinant human PAI-1 (Homo sapiens, UniProt P05121); construct: purchased Molecular Innovations, Inc; assay: Test Example 2: human PAI-1 inhibitory activity (tPA fluorogenic substrate, pH 7.4 HEPES buffer); type: biochemical; details: human PAI-1; compound concentration 0.1 μM
measure: Inhibition Rate of PAI-1 Activity (%)

Recorded results for 5 compounds are shown here.
compound: CCCCOc1cccc(Oc2cc(-c3ccc(OC(F)(F)F)cc3)ccc2CCC(=O)O)c1
measurement_units: %
Inhibition Rate of PAI-1 Activity (%): 15
--
compound: O=C(O)C(=O)N(CCCCc1ccccc1)c1cc(-c2ccc(OC(F)(F)F)cc2)ccc1Oc1ccccc1
measurement_units: %
Inhibition Rate of PAI-1 Activity (%): 5
--
compound: CC(C)(C)c1ccc(Oc2cc(-c3ccccc3OC(F)(F)F)ccc2CCC(=O)O)cc1
measurement_units: %
Inhibition Rate of PAI-1 Activity (%): 2
--
compound: CCCCc1ccc(Oc2cc(-c3ccc(OC(F)(F)F)cc3)ccc2/C=C/C(=O)O)cc1
measurement_units: %
Inhibition Rate of PAI-1 Activity (%): 11
--
compound: CC(C)(C)c1cccc(Oc2ccc(-c3ccc(OC(F)(F)F)cc3)cc2/C=C/C(=O)O)c1
measurement_units: %
Inhibition Rate of PAI-1 Activity (%): 0

[1] O=C(O)CCc1ccc(-c2ccc(OC(F)(F)F)cc2)cc1Oc1ccc(C(F)(F)F)cc1
[2] CC(C)(C)c1ccc(Oc2ccc(Oc3ccc(OC(F)(F)F)cc3)cc2OCC(=O)O)cc1
[3] CC(C)c1ccc(-c2ccc(CCC(=O)O)c(Oc3ccc(C(C)(C)C)cc3)c2)cc1
Ordering criterion: Inhibition Rate of PAI-1 Activity (%); begin with the maximum. Return the labels ranked in the requested order, please.
1, 3, 2

----------
molecular target: recombinant human PAI-1 (Homo sapiens, UniProt P05121); construct: purchased Molecular Innovations, Inc; test: Test Example 2: human PAI-1 inhibitory activity (tPA fluorogenic substrate, pH 7.4 HEPES buffer); format: biochemical; details: human PAI-1; compound concentration 25 μM
measure: Inhibition Rate of PAI-1 Activity (%)

compound: CCCCOc1ccc(-c2ccc(OC(F)(F)F)cc2)cc1CCC(=O)O
Inhibition Rate of PAI-1 Activity (%): 98
--
compound: CC(C)(C)c1ccc(CN(C(=O)CC(=O)O)c2ccc(-c3ccc(OC(F)(F)F)cc3)cc2)cc1
Inhibition Rate of PAI-1 Activity (%): 95
--
compound: CC(C)(C)c1ccc(CN(C(=O)C(=O)O)c2ccc(N3CCN(c4ccc(OC(F)(F)F)cc4)CC3)cc2)cc1
Inhibition Rate of PAI-1 Activity (%): 90

----------
target: recombinant human PAI-1 (Homo sapiens); construct: purchased Molecular Innovations, Inc; assay: Test Example 2: human PAI-1 inhibitory activity (tPA fluorogenic substrate, pH 7.4 HEPES buffer); type: biochemical; conditions: human PAI-1; compound concentration 3 μM
measure: Inhibition Rate of PAI-1 Activity (%)

Recorded results for 2 compounds are shown here.
compound: CCCCCOc1ccc(-c2ccc(C(C)C)cc2)cc1N(CCCCc1ccccc1)C(=O)C(=O)O
target_entity: recombinant human PAI-1 (Homo sapiens)
measurement_units: %
Inhibition Rate of PAI-1 Activity (%): 94
//
compound: Cc1cc(C)cc(COc2ccc(-c3ccc(OC(F)(F)F)cc3)cc2N(CCCCc2ccccc2)C(=O)C(=O)O)c1
target_entity: recombinant human PAI-1 (Homo sapiens)
measurement_units: %
Inhibition Rate of PAI-1 Activity (%): 95

[P] CCCCCOc1cc(-c2ccc(OC(F)(F)F)cc2)ccc1CN(CC(=O)O)c1ccc(C(C)(C)C)cc1
[Q] CC(C)(C)c1ccc(Oc2cc(-c3ccc(C#N)cc3)ccc2OCC(=O)O)cc1
Just curious, which one has the larger Inhibition Rate of PAI-1 Activity (%) reading, P or Q ? Answer = label.
P

----------
biological target: recombinant human PAI-1 (Homo sapiens); construct: purchased Molecular Innovations, Inc; assay: Test Example 2: human PAI-1 inhibitory activity (tPA fluorogenic substrate, pH 7.4 HEPES buffer); format: biochemical; settings: human PAI-1; compound concentration 0.1 μM
measure: Inhibition Rate of PAI-1 Activity (%)

Recorded results for 2 compounds are shown here.
compound: CCCCc1ccc(Oc2cc(-c3ccc(OC(F)(F)F)cc3)ccc2CCC(=O)O)cc1
measure: Inhibition Rate of PAI-1 Activity (%)
measurement_units: %
reported: 18

compound: CC(C)(C)c1ccc(Oc2cc(-c3ccc(OC(F)(F)F)cc3)ccc2NCC(=O)O)cc1
measure: Inhibition Rate of PAI-1 Activity (%)
measurement_units: %
reported: 1

[P] CC(C)(C)c1ccc(Oc2cc(-c3ccc(C(C)(C)C)cc3)ccc2CCC(=O)O)cc1
[Q] CC(C)c1ccccc1Oc1cc(-c2ccc(OC(F)(F)F)cc2)ccc1CCC(=O)O
Just curious, which one has the larger Inhibition Rate of PAI-1 Activity (%) reading, P or Q ? Answer = label.
Q

----------
molecular target: recombinant human PAI-1 (Homo sapiens); construct: purchased Molecular Innovations, Inc; assay: Test Example 2: human PAI-1 inhibitory activity (tPA fluorogenic substrate, pH 7.4 HEPES buffer); assay type: biochemical; settings: human PAI-1; compound concentration 0.1 μM; 0.1 µM
measure: Inhibition Rate of PAI-1 Activity (%)

[A] CC(C)(C)C1CCC(CN(C(=O)C(=O)O)c2ccc(-c3ccc(OC(F)(F)F)cc3)cc2)CC1 (stereo not shown) [Compound 680]
[B] CC(C)(C)C1CCC(N(C(=O)C(=O)O)c2ccc(-c3ccc(OC(F)(F)F)cc3)cc2)CC1 (stereo not shown) [Compound 666]
From the items above, decide which of A and B has the lower Inhibition Rate of PAI-1 Activity (%) reading. Answer = label.
B

[a] CC(C)(C)C1CCC(N(C(=O)C(=O)O)c2ccc(-c3ccc(OC(F)(F)F)cc3)cc2)CC1 (stereo not shown) [Compound 665]
[b] CC(C)(C)C1CCC(CN(C(=O)C(=O)O)c2ccc(-c3ccc(OC(F)(F)F)cc3)cc2)CC1 (stereo not shown) [Compound 679]
Just curious, which one has the larger Inhibition Rate of PAI-1 Activity (%) reading, a or b ? Answer = label.
a

----------
target: recombinant human PAI-1 (Homo sapiens, UniProt P05121); construct: purchased Molecular Innovations, Inc; assay: Test Example 1: human PAI-1 inhibitory activity (tPA fluorogenic substrate, pH 7.5 Tris buffer); type: biochemical; details: Compound Concentration 10 μM; Tris buffer
measure: Inhibition Rate of PAI-1 Activity (%)

Recorded results for 5 compounds are shown here.
compound: CC(C)(C)c1ccc(Oc2cc(-c3ccc(OC(F)(F)F)cc3)ccc2/C=C/C(=O)O)cc1
Inhibition Rate of PAI-1 Activity (%): 84
//
compound: O=C(O)C=Cc1cc(-c2ccc(OC(F)(F)F)cc2)ccc1Oc1ccc(OC(F)(F)F)cc1
Inhibition Rate of PAI-1 Activity (%): 47
//
compound: CC(C)(C)c1ccc(Oc2cccc(-c3ccc(OC(F)(F)F)cc3)c2C=CC(=O)O)cc1
Inhibition Rate of PAI-1 Activity (%): 87
//
compound: CC(C)(C)c1ccc(-c2ccc(N(Cc3ccc(C(F)(F)F)cc3)C(=O)C(=O)O)cc2)cc1
Inhibition Rate of PAI-1 Activity (%): 80
//
compound: CC(C)(C)c1ccc(CN(C(=O)C(=O)O)c2ccccc2OCc2ccc(OC(F)(F)F)cc2)cc1
Inhibition Rate of PAI-1 Activity (%): 77

[P] Cc1c(-c2ccc(OC(F)(F)F)cc2)cccc1N(Cc1ccc(C(C)(C)C)cc1)C(=O)C(=O)O
[Q] CSc1ccc(-c2ccc(N(Cc3ccc(C(C)(C)C)cc3)C(=O)C(=O)O)cc2)cc1
[R] Cc1cccc(CN(C(=O)C(=O)O)c2ccc(-c3ccc(OC(F)(F)F)cc3)cc2)c1
Endpoint returns the given compounds ordered by ascending Inhibition Rate of PAI-1 Activity (%). Return the labels ranked in the requested order, please.
Q, R, P
